Cited source: patent US7268128B2

targetDesc: PDE7 (type VII phosphodiesterase) (Homo sapiens)
Construct: endogenous in cells
protocol: PDE7 inhibiting activity (3H-cAMP hydrolysis, active fraction from MOLT-4 cells)
runConditions: PDE7 fraction from MOLT-4 cells, 0.064 μM cAMP, 10 μM rolipram present, 2 hours at 25° C.; read-out: IC50 values for phosphodiesterase inhibiting activities (PDE7)
pIC50: −log10 of the molar value. Structures can show the parent of a compound that is named as a salt.
reportedMetric: pIC50

compound COc1cc(N2CCCNCC2)ccc1-c1nc2c(c(C3CCCCC3)nn2C)c(=O)[nH]1 [Example 134, monomethanesulfonate] , pIC50 observed: ≥ 8.00

compound COCCNS(=O)(=O)c1ccc(-c2nc3c(c(C4CCCCC4)nn3C)c(=O)[nH]2)c(OC)c1 , pIC50 observed: ≥ 6.00

compound COc1cc(N)ccc1-c1nc2c(c(C3CCCCC3)nn2C)c(=O)[nH]1 , pIC50 observed: ≥ 8.00

compound COc1cc(NC(C)=O)ccc1-c1nc2c(c(C3CCCCC3)nn2C)c(=O)[nH]1 , pIC50 observed: ≥ 6.00

compound COc1cc(S(=O)(=O)NCCN(C)C)ccc1-c1nc2c(c(C3CCCCC3)nn2C)c(=O)[nH]1 , pIC50 observed: ≥ 6.00

compound COc1cc(N2CCC(N(C)C)CC2)ccc1-c1nc2c(C)nn(C3CCCCC3)c2c(=O)[nH]1 , pIC50 observed: ≥ 6.00

compound COc1cc(N2CCC(O)CC2)ccc1-c1nc2c(c(C3CCCCC3)nn2C)c(=O)[nH]1 [Example 32, monomethanesulfonate] , pIC50 observed: ≥ 8.00

compound COc1cc(C2=CCNCC2)ccc1-c1nc2c(C)nn(C3CCCCC3)c2c(=O)[nH]1 [Example 273, monohydrochloride] , pIC50 observed: ≥ 6.00

compound COc1cc(S(=O)(=O)NCCN(C)C)ccc1-c1nc2c(C)nn(C3CCCCC3)c2c(=O)[nH]1 , pIC50 observed: ≥ 6.00

compound COc1cc(N2CCS(=O)(=O)CC2)ccc1-c1nc2c(c(C3CCCCC3)nn2C)c(=O)[nH]1 , pIC50 observed: ≥ 8.00

----------
targetDesc: PDE7 (type VII phosphodiesterase) (Homo sapiens)
Construct: endogenous in cells
protocol: PDE7 inhibiting activity (3H-cAMP hydrolysis, active fraction from MOLT-4 cells)
runConditions: PDE7 fraction from MOLT-4 cells, 0.064 μM cAMP, 10 μM rolipram present, 2 hours at 25° C.; read-out: IC50 values for phosphodiesterase inhibiting activities (PDE7)
Listing: IC50 of selected compounds

Answered examples (2):
{"compound": "CC(=O)Nc1ccc(-c2nc3c(C)nn(C4CCCCC4)c3c(=O)[nH]2)nc1 [Example 12]", "targetDesc": "PDE7 (type VII phosphodiesterase) (Homo sapiens)", "IC50": "≤ 1000 nM"}
{"compound": "CCn1nc(C2CCCCC2)c2c(=O)[nH]c(-c3ccc(N4CCC(NC)CC4)cc3OC)nc21 [Example 196]", "targetDesc": "PDE7 (type VII phosphodiesterase) (Homo sapiens)", "IC50": "≤ 1000 nM"}

compound COc1cc(NCCN(C)C)ccc1-c1nc2c(C)nn(C3CCCCC3)c2c(=O)[nH]1 [Example 230] , IC50 observed: ≤ 10 nM

compound COc1cc(S(=O)(=O)N(C)CCN)ccc1-c1nc2c(C)nn(C3CCCCC3)c2c(=O)[nH]1 [Example 210-1] , IC50 observed: ≤ 1000 nM

compound COc1cc(S(=O)(=O)N2CCC(N)C2)ccc1-c1nc2c(c(C3CCCCC3)nn2C)c(=O)[nH]1 (stereo not drawn) [Example 172, monomethanesulfonate] , IC50 observed: ≤ 1000 nM

compound COc1cc(N2CCN(C)CC2)ccc1-c1nc2c(c(C3CCCCC3)nn2C)c(=O)[nH]1 [Example 28, monomethanesulfonate] , IC50 observed: ≤ 10 nM

compound CC(=O)Nc1ccc(-c2nc3c(C)nn(C4CCCCC4)c3c(=O)[nH]2)cc1 [Example 4] , IC50 observed: ≤ 1000 nM

compound CNC1CCN(S(=O)(=O)c2ccc(-c3nc4c(c(C5CCCCC5)nn4C)c(=O)[nH]3)c(OC)c2)CC1 [Example 169, monomethanesulfonate] , IC50 observed: ≤ 1000 nM

compound COc1cc(N2CCCN(C)CC2)ccc1-c1nc2c(C)nn(C3CCCCC3)c2c(=O)[nH]1 [Example 112] , IC50 observed: ≤ 1000 nM

----------
targetDesc: PDE7 (type VII phosphodiesterase) (Homo sapiens)
Construct: endogenous in cells
protocol: PDE7 inhibiting activity (3H-cAMP hydrolysis, active fraction from MOLT-4 cells)
runConditions: PDE7 fraction from MOLT-4 cells, 0.064 μM cAMP, 10 μM rolipram present, 2 hours at 25° C.; read-out: IC50 values for phosphodiesterase inhibiting activities (PDE7)
reportedMetric: IC50

Answered examples (5):
{"compound": "CCOc1cc(S(=O)(=O)N2CCC(O)CC2)ccc1-c1nc2c(C)nn(C3CCCCC3)c2c(=O)[nH]1 [Example 257]", "targetDesc": "PDE7 (type VII phosphodiesterase) (Homo sapiens)", "experimentalValue": "≤ 1 µM"}
{"compound": "COc1cc(S(=O)(=O)N2CCC(O)CC2)ccc1-c1nc2c(C)nn(C3CCCCC3)c2c(=O)[nH]1 [Example 199]", "targetDesc": "PDE7 (type VII phosphodiesterase) (Homo sapiens)", "experimentalValue": "≤ 1 µM"}
{"compound": "COCCOc1ccc(-c2nc3c(c(C4CCCCC4)nn3C)c(=O)[nH]2)c(OC)c1 [Example 34]", "targetDesc": "PDE7 (type VII phosphodiesterase) (Homo sapiens)", "experimentalValue": "≤ 1 µM"}
{"compound": "COc1cc(N2CCC(N(C)C)CC2)ccc1-c1nc2c(c(C3CCCCC3)nn2C)c(=O)[nH]1 [Example 154, monomethanesulfonate]", "targetDesc": "PDE7 (type VII phosphodiesterase) (Homo sapiens)", "experimentalValue": "≤ 0.01 µM"}
{"compound": "COc1cc(CCC(=O)O)ccc1-c1nc2c(C)nn(C3CCCCC3)c2c(=O)[nH]1 [Example 229]", "targetDesc": "PDE7 (type VII phosphodiesterase) (Homo sapiens)", "experimentalValue": "≤ 1 µM"}

Per the reported PDE7 (type VII phosphodiesterase) (Homo sapiens) data, CCNC1CCN(c2ccc(-c3nc4c(C)nn(C5CCCCC5)c4c(=O)[nH]3)c(OC)c2)CC1 [Example 99] has IC50 of ≤ 1 µM

Per the reported PDE7 (type VII phosphodiesterase) (Homo sapiens) data, CNC1CCN(c2ccc(-c3nc4c(c(C5CCCCCC5)nn4C)c(=O)[nH]3)c(OC)c2)CC1 [Example 95, monomethanesulfonate] has IC50 of ≤ 0.01 µM

Per the reported PDE7 (type VII phosphodiesterase) (Homo sapiens) data, CCOc1cc(N2CCC(N(C)C)CC2)ccc1-c1nc2c(C)nn(C3CCCCC3)c2c(=O)[nH]1 [Example 250] has IC50 of ≤ 0.01 µM

Per the reported PDE7 (type VII phosphodiesterase) (Homo sapiens) data, COc1cc(S(=O)(=O)N2CCN(C)CC2)ccc1-c1nc2c(c(C3CCCCC3)nn2C)c(=O)[nH]1 [Example 50] has IC50 of ≤ 1 µM

Per the reported PDE7 (type VII phosphodiesterase) (Homo sapiens) data, CCOc1cc(N2CCCN(C)CC2)ccc1-c1nc2c(C)nn(C3CCCCC3)c2c(=O)[nH]1 [Example 130] has IC50 of ≤ 1 µM

Per the reported PDE7 (type VII phosphodiesterase) (Homo sapiens) data, COc1cc(NC(N)=O)ccc1-c1nc2c(c(C3CCCCC3)nn2C)c(=O)[nH]1 [Example 140] has IC50 of ≤ 0.01 µM

Per the reported PDE7 (type VII phosphodiesterase) (Homo sapiens) data, COc1cc(N(C)CCN(C)C)ccc1-c1nc2c(c(C3CCCCC3)nn2C)c(=O)[nH]1 [Example 132, monomethanesulfonate] has IC50 of ≤ 0.01 µM

Per the reported PDE7 (type VII phosphodiesterase) (Homo sapiens) data, COc1cc(OC2CCN(C)CC2)ccc1-c1nc2c(c(C3CCCCC3)nn2C)c(=O)[nH]1 [Example 42, monomaleate] has IC50 of ≤ 1 µM

----------
targetDesc: PDE7 (type VII phosphodiesterase) (Homo sapiens, UniProt Q13946)
Construct: endogenous in cells
Sequence (Q13946 whole entry): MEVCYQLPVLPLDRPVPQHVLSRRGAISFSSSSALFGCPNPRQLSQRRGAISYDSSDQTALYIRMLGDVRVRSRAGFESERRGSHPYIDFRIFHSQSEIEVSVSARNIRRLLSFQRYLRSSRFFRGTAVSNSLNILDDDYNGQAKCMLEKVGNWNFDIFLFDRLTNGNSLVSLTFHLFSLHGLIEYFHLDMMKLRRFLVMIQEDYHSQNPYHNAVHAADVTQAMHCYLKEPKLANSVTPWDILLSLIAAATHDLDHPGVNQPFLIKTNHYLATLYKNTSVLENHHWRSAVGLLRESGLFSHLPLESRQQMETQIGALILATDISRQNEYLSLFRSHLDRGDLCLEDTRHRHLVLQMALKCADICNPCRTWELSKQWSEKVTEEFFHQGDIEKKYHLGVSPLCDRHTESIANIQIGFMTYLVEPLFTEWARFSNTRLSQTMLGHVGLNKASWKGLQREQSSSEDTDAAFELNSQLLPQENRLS
protocol: PDE7 inhibiting activity (3H-cAMP hydrolysis, active fraction from MOLT-4 cells)
runConditions: PDE7 fraction from MOLT-4 cells, 0.064 μM cAMP, 10 μM rolipram present, 2 hours at 25° C.; read-out: IC50 values for phosphodiesterase inhibiting activities (PDE7)
reportedMetric: IC50

{"sampleSmiles": "COc1cc(S(=O)(=O)N(C)CCO)ccc1-c1nc2c(C)nn(C3CCCCC3)c2c(=O)[nH]1", "IC50": "≤ 1 µM"}
{"sampleSmiles": "COc1cc(S(=O)(=O)N2CCSCC2)ccc1-c1nc2c(c(C3CCCCC3)nn2C)c(=O)[nH]1", "IC50": "≤ 1 µM"}
{"sampleSmiles": "COc1cc(NC2CCNCC2)ccc1-c1nc2c(C)nn(C3CCCCC3)c2c(=O)[nH]1", "IC50": "≤ 0.01 µM"}
{"sampleSmiles": "COc1cc(CN2CCOCC2)ccc1-c1nc2c(C)nn(C3CCCCC3)c2c(=O)[nH]1", "IC50": "≤ 1 µM"}

compound COc1cc([N+](=O)[O-])ccc1-c1nc2c(C)nn(C3CCCCC3)c2c(=O)[nH]1 , IC50 observed: ≤ 1 µM

compound COc1cc(N2CCC(N(C)C=O)CC2)ccc1-c1nc2c(C)nn(C3CCCCC3)c2c(=O)[nH]1 , IC50 observed: ≤ 1 µM

compound CNC1CCN(c2ccc(-c3nc4c(C)nn(C5CCCCC5)c4c(=O)[nH]3)c(OC)c2)CC1 , IC50 observed: ≤ 0.01 µM

compound CCOc1cc(N2CCC(O)CC2)ccc1-c1nc2c(C)nn(C3CCCCC3)c2c(=O)[nH]1 , IC50 observed: ≤ 0.01 µM

compound COc1cc(C(=O)O)ccc1-c1nc2c(c(C3CCCCC3)nn2C)c(=O)[nH]1 , IC50 observed: ≤ 1 µM
